Provenance of the data: the supplement of paper PMC10307832

# relative viability annotations
# Tested on: NCI-H3122
# assay-name: relative viability (nuclei count vs DMSO), 5 days (fraction); higher = more cells survive
# experimental-context: first compound 0.4 µM
endpoint-name: relative viability

[
  {
    "molecule": "C[C@@H]1CN(CC(=O)Nc2ccc3c(c2)Cc2cccc(-c4cc(=O)cc(N5CCOCC5)o4)c2S3)C[C@H](C)O1 + CC1(C)CCC(c2ccc(Cl)cc2)=C(CN2CCN(c3ccc(C(=O)NS(=O)(=O)c4ccc(N[C@H](CCN5CCOCC5)CSc5ccccc5)c(S(=O)(=O)C(F)(F)F)c4)cc3)CC2)C1 [Navitoclax] (partner 0.5 µM)",
    "meas-value": 0.965
  },
  {
    "molecule": "COc1cc(N2CCC(C(N)=O)CC2)ccc1Nc1nc(N)c(Cl)c(Nc2ccccc2S(=O)(=O)C(C)C)n1 [HG-5-88-01] + CC(C)C[C@H](NC(=O)[C@H](Cc1ccccc1)NC(=O)c1cnccn1)B(O)O [Bortezomib] (partner 0.002 µM)",
    "meas-value": 0.335
  }
]

---

# Tested on: NCI-H647
# assay-name: relative viability (nuclei count vs DMSO), 5 days (fraction); higher = more cells survive
# experimental-context: first compound 1.265 µM

[
  {
    "molecule": "COc1cc(N2CCC(C(N)=O)CC2)ccc1Nc1nc(N)c(Cl)c(Nc2ccccc2S(=O)(=O)C(C)C)n1 [HG-5-88-01] + CCNC(=O)c1noc(-c2cc(C(C)C)c(O)cc2O)c1-c1ccc(CN2CCOCC2)cc1 [Luminespib] (partner 0.01 µM)",
    "relative viability": 0.148
  },
  {
    "molecule": "Clc1ccc(Nc2nnc(Cc3ccncc3)c3ccccc23)cc1 [Vatalanib] + COc1cccc2cc(-c3nc([C@H]4CC[C@H](C(=O)O)CC4)n4ncnc(N)c34)[nH]c12 [OSI-027] (partner 0.5 µM)",
    "relative viability": 0.568
  },
  {
    "molecule": "COc1cc(N2CCC(C(N)=O)CC2)ccc1Nc1nc(N)c(Cl)c(Nc2ccccc2S(=O)(=O)C(C)C)n1 [HG-5-88-01] + C[C@]1(O)C[C@@H](c2nc(-c3ccc4ccc(-c5ccccc5)nc4c3)c3c(N)nccn32)C1 [Linsitinib] (partner 1 µM)",
    "relative viability": 1.08
  }
]

---

# System: NCI-H1944
# assay-name: relative viability (nuclei count vs DMSO), 5 days (fraction); higher = more cells survive
# experimental-context: first compound 0.04 µM
Here the recorded relative viability is given for each entry.

[
  {
    "compound": "COc1cc(N2CCC(C(N)=O)CC2)ccc1Nc1nc(N)c(Cl)c(Nc2ccccc2S(=O)(=O)C(C)C)n1 [HG-5-88-01] + O=C(c1cc(Cc2n[nH]c(=O)c3ccccc23)ccc1F)N1CCN(C(=O)C2CC2)CC1 [Olaparib] (partner 8 µM)",
    "relative viability": 0.414
  },
  {
    "compound": "Clc1ccc(Nc2nnc(Cc3ccncc3)c3ccccc23)cc1 [Vatalanib] + CC(=O)Nc1cccc(-n2c(=O)n(C3CC3)c(=O)c3c(Nc4ccc(I)cc4F)n(C)c(=O)c(C)c32)c1 [Trametinib] (partner 0.02 µM)",
    "relative viability": 0.42
  },
  {
    "compound": "Clc1ccc(Nc2nnc(Cc3ccncc3)c3ccccc23)cc1 [Vatalanib] + Nc1nc2[nH]cc(CCc3ccc(C(=O)N[C@@H](CCC(=O)O)C(=O)O)cc3)c2c(=O)[nH]1 [Pemetrexed] (partner 0.2 µM)",
    "relative viability": 0.544
  }
]

---

# Tested on: LOU-NH91
# assay-name: relative viability (nuclei count vs DMSO), 5 days (fraction); higher = more cells survive
# experimental-context: first compound 0.01 µM
endpoint-name: relative viability

[
  {
    "compound": "CC(C)Oc1cc(Nc2nc(N[C@@H](C)c3ccc(F)cn3)ncc2Cl)n[nH]1 [AZ23] + COc1cc2c(Oc3ccc(NC(=O)C4(C(=O)Nc5ccc(F)cc5)CC4)cc3F)ccnc2cc1OCCCN1CCOCC1 [Foretinib] (partner 0.25 µM)",
    "target-under-test": "LOU-NH91",
    "meas-value": 0.941
  },
  {
    "compound": "CC(C)Oc1cc(Nc2nc(N[C@@H](C)c3ccc(F)cn3)ncc2Cl)n[nH]1 [AZ23] + CC(=O)Nc1cccc(-n2c(=O)n(C3CC3)c(=O)c3c(Nc4ccc(I)cc4F)n(C)c(=O)c(C)c32)c1 [Trametinib] (partner 0.02 µM)",
    "target-under-test": "LOU-NH91",
    "meas-value": 0.784
  },
  {
    "compound": "CC(C)Oc1cc(Nc2nc(N[C@@H](C)c3ccc(F)cn3)ncc2Cl)n[nH]1 [AZ23] + C[C@]1(O)C[C@@H](c2nc(-c3ccc4ccc(-c5ccccc5)nc4c3)c3c(N)nccn32)C1 [Linsitinib] (partner 1 µM)",
    "target-under-test": "LOU-NH91",
    "meas-value": 0.85
  },
  {
    "compound": "CC(C)Oc1cc(Nc2nc(N[C@@H](C)c3ccc(F)cn3)ncc2Cl)n[nH]1 [AZ23] + CC(C)C[C@H](NC(=O)[C@H](Cc1ccccc1)NC(=O)c1cnccn1)B(O)O [Bortezomib] (partner 0.002 µM)",
    "target-under-test": "LOU-NH91",
    "meas-value": 0.535
  },
  {
    "compound": "CC(C)Oc1cc(Nc2nc(N[C@@H](C)c3ccc(F)cn3)ncc2Cl)n[nH]1 [AZ23] + Cc1nc(Nc2ncc(C(=O)Nc3c(C)cccc3Cl)s2)cc(N2CCN(CCO)CC2)n1 [Dasatinib] (partner 0.075 µM)",
    "target-under-test": "LOU-NH91",
    "meas-value": 0.565
  }
]

---

# System: NCI-H522
# assay-name: relative viability (nuclei count vs DMSO), 5 days (fraction); higher = more cells survive
# experimental-context: first compound 0.4 µM
Consider the following compounds and their measured relative viability readings.

[
  {
    "compound": "C[C@@H]1CN(CC(=O)Nc2ccc3c(c2)Cc2cccc(-c4cc(=O)cc(N5CCOCC5)o4)c2S3)C[C@H](C)O1 + Cc1cc(Nc2cc(N3CCN(C)CC3)nc(Sc3ccc(NC(=O)C4CC4)cc3)n2)n[nH]1 [Tozasertib] (partner 0.1 µM)",
    "relative viability": 0.583
  },
  {
    "compound": "C[C@@H]1CN(CC(=O)Nc2ccc3c(c2)Cc2cccc(-c4cc(=O)cc(N5CCOCC5)o4)c2S3)C[C@H](C)O1 + NC(=O)Nc1cc(-c2cccc(F)c2)sc1C(=O)N[C@H]1CCCNC1 [AZD7762] (partner 0.2 µM)",
    "relative viability": 0.908
  },
  {
    "compound": "COc1cc(N2CCC(C(N)=O)CC2)ccc1Nc1nc(N)c(Cl)c(Nc2ccccc2S(=O)(=O)C(C)C)n1 [HG-5-88-01] + NC(=O)Nc1cc(-c2cccc(F)c2)sc1C(=O)N[C@H]1CCCNC1 [AZD7762] (partner 0.2 µM)",
    "relative viability": 0.779
  },
  {
    "compound": "C[C@@H]1CN(CC(=O)Nc2ccc3c(c2)Cc2cccc(-c4cc(=O)cc(N5CCOCC5)o4)c2S3)C[C@H](C)O1 + N=C(N)NC(=N)NCCc1ccccc1 [Phenformin] (partner 250 µM)",
    "relative viability": 0.635
  }
]

---

# Tested on: LCLC-103H
# assay-name: relative viability (nuclei count vs DMSO), 5 days (fraction); higher = more cells survive
# experimental-context: first compound 4 µM
# note: exactly 0.5 is not below, so it is 0.0; use 1.0 for relative viability strictly under it

[
  {
    "molecule": "COc1cc(N2CCC(C(N)=O)CC2)ccc1Nc1nc(N)c(Cl)c(Nc2ccccc2S(=O)(=O)C(C)C)n1 [HG-5-88-01] + Cc1cc(Nc2cc(N3CCN(C)CC3)nc(Sc3ccc(NC(=O)C4CC4)cc3)n2)n[nH]1 [Tozasertib] (partner 0.1 µM)",
    "label-value": 1.0
  },
  {
    "molecule": "COc1cc(N2CCC(C(N)=O)CC2)ccc1Nc1nc(N)c(Cl)c(Nc2ccccc2S(=O)(=O)C(C)C)n1 [HG-5-88-01] + COc1cccc2cc(-c3nc([C@H]4CC[C@H](C(=O)O)CC4)n4ncnc(N)c34)[nH]c12 [OSI-027] (partner 0.5 µM)",
    "label-value": 1.0
  },
  {
    "molecule": "Clc1ccc(Nc2nnc(Cc3ccncc3)c3ccccc23)cc1 [Vatalanib] + COc1cc2c(Oc3ccc(NC(=O)C4(C(=O)Nc5ccc(F)cc5)CC4)cc3F)ccnc2cc1OCCCN1CCOCC1 [Foretinib] (partner 0.25 µM)",
    "label-value": 0.0
  },
  {
    "molecule": "C[C@@H]1CN(CC(=O)Nc2ccc3c(c2)Cc2cccc(-c4cc(=O)cc(N5CCOCC5)o4)c2S3)C[C@H](C)O1 + CC(C)C[C@H](NC(=O)[C@H](Cc1ccccc1)NC(=O)c1cnccn1)B(O)O [Bortezomib] (partner 0.002 µM)",
    "label-value": 0.0
  },
  {
    "molecule": "C[C@@H]1CN(CC(=O)Nc2ccc3c(c2)Cc2cccc(-c4cc(=O)cc(N5CCOCC5)o4)c2S3)C[C@H](C)O1 + C[C@]1(O)C[C@@H](c2nc(-c3ccc4ccc(-c5ccccc5)nc4c3)c3c(N)nccn32)C1 [Linsitinib] (partner 1 µM)",
    "label-value": 0.0
  },
  {
    "molecule": "C[C@@H]1CN(CC(=O)Nc2ccc3c(c2)Cc2cccc(-c4cc(=O)cc(N5CCOCC5)o4)c2S3)C[C@H](C)O1 + NC(=O)Nc1cc(-c2cccc(F)c2)sc1C(=O)N[C@H]1CCCNC1 [AZD7762] (partner 0.2 µM)",
    "label-value": 0.0
  }
]
